Readings of growth for the listed molecules
Tested on: CAKI-1 renal
Test: NCI-60 one-dose screen, 48 h (100 = growth as untreated, 0 = no growth, -100 = all killed)
Conditions: 10 µM unless noted
Procedure: Growth inhibition of the CAKI-1 human tumor cell line is measured as a screen for anti-cancer activity. Cells are grown in 96 well plates and exposed to the test compound for 48 hours. Compounds are tested at a single concentration, which is 10^-5 M for most compounds. The reported endpoint is percent growth (GI% or GIPRCNT), where numbers from 0 - 100% represent growth inhibition, and numbers from -100% - 0 represent cell death. For example, a value of 40 represents 60% growth inhibition. […]
About 83,000 compounds went through this panel and 20% of them were active in at least one assay; those are over-represented in the sample as a whole.
Please state the figure in %; there is no need to write the unit.

- MOLECULE: "Cc1cccc(/C=C/c2nn3c(-c4ccco4)nnc3s2)c1"
  growth, %: 91.4
- MOLECULE: "COC(=O)C(Cc1ccccc1)NS(=O)(=O)/N=C1\\NC(=O)NC1=C(Cl)Cl (centres undefined)"
  growth, %: 100
- MOLECULE: "Cc1cc(C(NC(=O)CCCCCNc2cccc3c2C(=O)N(C2CCC(=O)NC2=O)C3=O)c2cccnc2)c(O)c2ncccc12 (centres undefined)"
  growth, %: 14.2
- MOLECULE: "c1ccc2c(NCCCN3CCOCC3)c3oc4ccccc4c3nc2c1"
  growth, %: -27
- MOLECULE: "CCOC(=O)c1csc(NC(=O)CSc2nc3sc4c(c3c(=O)n2-c2ccc(Cl)cc2)CCCC4)n1"
  growth, %: 92

growth for CS(=O)(=O)c1ccc(-c2nc3ccccn3c2-c2nc3ccc([N+](=O)[O-])cc3[nH]2)cc1 ? 86.2

# query: growth of entry NS(=O)(=O)c1ccc(Nc2nc(SCC(=O)c3ccc(Cl)cc3)nc3ccccc23)cc1 74.5

Look up growth for this molecule: Cc1nc(-c2cc3ccccc3oc2=O)ccc1C(=O)/C=C/c1ccccn1 60.6

Reported growth for Cc1nc2cnc(N)c(C#Cc3cncc(C(=O)Nc4ccc(Cl)c(C(F)(F)F)c4)c3)c2nc1C : what is it? 18.8

Quick check: growth of COc1ccccc1/C=C/C=N/NC1=NC2C(S1)N(C)C(=O)N2C (centres undefined) ? 30.6

Cited source: PubChem BioAssay (NCI)
